Measured values drawn from PubChem BioAssay (NCI) for this set.

tested on: OVCAR-4 ovarian; experiment: NCI tumour cell line growth inhibition, 48 h
reported.metric: GI50

Worked cases, answers included:
{"compound": "COc1ccc(/C(=N/O)c2cc(F)c(F)c(OC)c2F)cc1O", "target.system": "OVCAR-4 ovarian", "GI50": "9100 nM"}
{"compound": "CC(C)(C)c1ccc(OCCCCCCCN2CCNCC2)cc1", "target.system": "OVCAR-4 ovarian", "GI50": "1600 nM"}
{"compound": "CC(C)C[C@H](NC(=O)[C@@H](N)Cc1cccc2ccccc12)B(O)O", "target.system": "OVCAR-4 ovarian", "GI50": "38.4 nM"}
{"compound": "CCn1cnc(C[C@H](NC(=O)[C@@H](NC(=O)Nc2cc(C(F)(F)F)cc(C(F)(F)F)c2)C(C)(C)C)C(=O)OC)c1", "target.system": "OVCAR-4 ovarian", "GI50": "> 10000 nM"}
{"compound": "O=C1C=CC(=O)N1c1ccc2ccccc2c1", "target.system": "OVCAR-4 ovarian", "GI50": "8920 nM"}
{"compound": "COc1ccc(C(=O)c2no[n+]([O-])c2C(=O)c2ccc(OC)cc2)cc1", "target.system": "OVCAR-4 ovarian", "GI50": "2360 nM"}

Ask: Please list GI50 recorded for the compound "Cc1cc(N)c2cc(NC(=O)/C=C\c3ccccc3Cl)ccc2n1"
Reply: 365 nM

Ask: Identify the reported GI50 for the following entry. CCOC(=O)CCC(NC(=O)c1ccc(Oc2nc3cc(N)cc(N)c3nc2-c2ccccc2)cc1)C(=O)OCC (stereo unspecified)
Reply: 35600 nM

Ask: For "O=C(N/N=C/c1coc2ccc(Cl)cc2c1=O)c1cc(O)c(O)c(O)c1" , write its GI50.
Reply: 98400 nM

Ask: Please report GI50 for the following compound: "COc1cccc(/C=C2\COc3ccc(O)c(O)c3C2=O)c1OC"
Reply: 2170 nM

Ask: Return the recorded GI50 value; entry: "COc1cc2c(cc1OCCCN1CCN(CCCOc3cc4c(cc3OC)C(=O)N3C[C@H](F)C[C@H]3C=N4)CC1)N=C[C@@H]1C[C@@H](F)CN1C2=O"
Reply: 386 nM
